Cited source for all entries: paper PMC6445164

Molecular target: hCA II (Homo sapiens, UniProt P00918)
Test: stopped-flow CA catalysed CO2 hydration assay, hCA II
READOUT_TYPE: Ki (nM)

>  <COMPOUND>
Cc1ccccc1-n1nc(C)c(S(N)(=O)=O)c1C

>  <MEASURED_TARGET>
hCA II (Homo sapiens, UniProt P00918)

>  <Ki, nM>
91

$$$$
>  <COMPOUND>
Cc1nn(-c2ccc(Cl)cc2)c(C)c1S(N)(=O)=O

>  <MEASURED_TARGET>
hCA II (Homo sapiens, UniProt P00918)

>  <Ki, nM>
5330

$$$$
>  <COMPOUND>
Cc1ccc(-n2nc(C)c(S(N)(=O)=O)c2C)cc1

>  <MEASURED_TARGET>
hCA II (Homo sapiens, UniProt P00918)

>  <Ki, nM>
740

$$$$
>  <COMPOUND>
NS(=O)(=O)c1ccc(-n2cccn2)cc1 [Compound 7a, 4-(^1H-pyrazol-1-yl)benzenesulfonamide]

>  <MEASURED_TARGET>
hCA II (Homo sapiens, UniProt P00918)

>  <Ki, nM>
72

$$$$
>  <COMPOUND>
NS(=O)(=O)c1ccc(Cl)c(-n2cc(S(N)(=O)=O)cn2)c1

>  <MEASURED_TARGET>
hCA II (Homo sapiens, UniProt P00918)

>  <Ki, nM>
5

$$$$

P. Cc1nn(-c2ccc(Cl)c(S(N)(=O)=O)c2)c(C)c1S(N)(=O)=O
Q. NS(=O)(=O)c1ccc(-n2cc(S(N)(=O)=O)cn2)cc1
R. Cc1ccc(-n2cc(S(N)(=O)=O)cn2)cc1S(N)(=O)=O
S. NS(=O)(=O)c1cnn(-c2ccc(S(N)(=O)=O)c(Cl)c2)c1
T. Cc1nn(-c2ccccc2)c(C)c1S(N)(=O)=O
Qu. Rank the items in ascending order with respect to Ki. Please express your ranking as an ordered list of the labels.
Ans. Q, R, S, P, T
(Q: 2 nM, R: 4 nM, S: 8 nM, P: 40 nM, T: 280 nM)

====

Recorded pKi for the following molecules
Molecular target: hCA IV (Homo sapiens)
Sequence (P22748 19-312): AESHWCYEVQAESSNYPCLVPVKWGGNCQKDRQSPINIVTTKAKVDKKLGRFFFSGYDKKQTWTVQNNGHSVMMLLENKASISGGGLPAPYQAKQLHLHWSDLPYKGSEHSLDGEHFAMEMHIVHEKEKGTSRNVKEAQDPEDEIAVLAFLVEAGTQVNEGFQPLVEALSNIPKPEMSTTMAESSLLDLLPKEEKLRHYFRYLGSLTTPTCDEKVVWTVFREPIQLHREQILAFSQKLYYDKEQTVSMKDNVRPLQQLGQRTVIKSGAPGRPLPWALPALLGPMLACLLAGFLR
Test: stopped-flow CA catalysed CO2 hydration assay, hCA IV
pKi: −log10 of the molar value.

Recorded results for 2 molecules are shown here.
>  <STRUCTURE_SMILES_STRING>
COc1ccc(-n2nc(C)c(S(N)(=O)=O)c2C)cc1S(N)(=O)=O

>  <MEASURED_TARGET>
hCA IV (Homo sapiens)

>  <pKi>
< 5.00

$$$$
>  <STRUCTURE_SMILES_STRING>
Cc1ccc(-n2nc(C)c(S(N)(=O)=O)c2C)cc1

>  <MEASURED_TARGET>
hCA IV (Homo sapiens)

>  <pKi>
< 5.00

$$$$

Qu. Record request: pKi value, item COc1cc(-n2cccn2)ccc1S(N)(=O)=O
Ans. < 5.00

====

Biological target: hCA I (Homo sapiens, UniProt P00915)
Sequence (P00915 whole entry): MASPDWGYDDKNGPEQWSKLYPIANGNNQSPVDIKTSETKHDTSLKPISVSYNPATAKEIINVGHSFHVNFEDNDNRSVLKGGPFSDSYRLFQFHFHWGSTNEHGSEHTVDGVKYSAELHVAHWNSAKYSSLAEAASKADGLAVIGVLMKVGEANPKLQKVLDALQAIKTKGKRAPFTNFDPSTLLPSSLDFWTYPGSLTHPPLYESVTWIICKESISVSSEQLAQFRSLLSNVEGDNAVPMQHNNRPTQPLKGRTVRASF
Test: stopped-flow CA catalysed CO2 hydration assay, hCA I
pKi: −log10 of the molar value.
READOUT_TYPE: pKi

>  <STRUCTURE_SMILES_STRING>
NS(=O)(=O)c1cnn(-c2ccc(Cl)cc2)c1

>  <pKi>
6.72

$$$$

A. Cc1ccccc1-n1nc(C)c(S(N)(=O)=O)c1C
B. Cc1nn(-c2ccc(S(N)(=O)=O)c(Cl)c2)c(C)c1S(N)(=O)=O
Qu. Identify the entry with the smaller pKi: A or B . Kindly give the label for the entry you pick.
Ans. A

A. Cc1cccc(-n2nc(C)c(S(N)(=O)=O)c2C)c1
B. COc1cc(-n2nc(C)cc2C)ccc1S(N)(=O)=O
Qu. Of A and B , which shows the smaller pKi value? Answer = label.
Ans. B
